tested on: anti-CPPU mAb 14G1–HRP; test: direct competitive magnetic-bead (MB)-based assay with mAb 14G1–HRP; format: binding, mouse; conditions: optimized conditions
The entries below are paired with their reported MB-Based Assay IC50.

See these solved cases before continuing.
compound_string | MB-Based Assay IC50
Clc1ccccc1-c1nnc(-c2ccccc2Cl)nn1 | >1.0 ng/mL
O=C(Nc1ccccc1)Nc1cnns1 | >1.0 ng/mL
O=C(Nc1ccccc1)Nc1ccnc(Cl)c1 | 0.0061 ng/mL
CON(C)C(=O)Nc1ccc(Cl)c(Cl)c1 | >1.0 ng/mL
Cc1ccc(NC(=O)N(C)C)cc1Cl | >1.0 ng/mL

Consider the additional compound presented here.
### Prompt Field request: MB-Based Assay IC50 | item: CN(C)C(=O)Nc1ccc(Cl)c(Cl)c1
### Response >1.0 ng/mL

* * *

Tested on: anti-CPPU mAb 14G1–HRP
Test: direct competitive magnetic-bead (MB)-based assay with mAb 14G1–HRP
Format: binding, mouse
Details: CR = IC50 of CPPU/IC50 of analyte × 100%
Method: A direct competitive MB-based assay was developed as follows. First, the 96-well microtiter plate was pre-sealed with 5% skim milk at 37 °C for 1 h. After washing with PBST, MB–CPPU–BSA (10 μg/μL, 10 μL per well) was added to the 96-well plate. Subsequently, 50 μL of serially diluted CPPU standards and 50 μL of diluted mAb–HRP (1:3200) were mixed into the wells. […] The reaction was stopped with 2 M H2SO4, and the absorbance was measured at a wavelength of 450 nm. […]
The entries below are paired with their reported MB-Based Assay CR.

compound | measurement_label | observed_measurement
O=C(Nc1ccccc1)Nc1cnns1 [Thidiazuron] | MB-Based Assay CR | <0.6%
O=C(Nc1ccccc1)Nc1ccnc(Cl)c1 [Forchlorfenuron (CPPU), Forchlorfenuron] | MB-Based Assay CR | 100%
Cc1ccc(NC(=O)N(C)C)cc1Cl [Chlorotoluron] | MB-Based Assay CR | <0.6%
Clc1ccccc1-c1nnc(-c2ccccc2Cl)nn1 [Clofentezine] | MB-Based Assay CR | <0.6%
CN(C)C(=O)Nc1ccc(Cl)c(Cl)c1 [Diuron] | MB-Based Assay CR | <0.6%

### Prompt Field request: MB-Based Assay CR | item: CON(C)C(=O)Nc1ccc(Cl)c(Cl)c1 [Linuron]
### Response <0.6%
